These entries and their values trace back to ChEMBL document CHEMBL1132413.

Each entry below carries its reported TGI.
Test system: L1210
Test: The compound was tested […] for 100% growth inhibition against L1210 murine leukemia cells.
Assay type: functional, Mus musculus
State just the number; it will be interpreted in µM.

Sample answers from the record:
- CCOC(=O)CNC(=O)C(CSC(=O)N(O)c1ccc(Cl)cc1)NC(=O)CCC(N)C(=O)OCC.Cl (centres undefined): 27
- CCOC(=O)CNC(=O)[C@@H](CSCc1ccc(Br)cc1)NC(=O)CCC(N)C(=O)OCC (some centres undefined): 11
- CCOC(=O)CNC(=O)C(CSC(=O)N(O)c1ccc(Br)cc1)NC(=O)CCC(N)C(=O)OCC.Cl (centres undefined): 7

Here is the next item to consider.
Enquiry: // TGI lookup, key: CCOC(=O)CNC(=O)C(CSC(=O)N(O)c1ccccc1)NC(=O)CCC(N)C(=O)OCC.Cl (centres undefined)
Return: 135
